Values from patent US11337964B2

Molecular target: PDE4B1 (Homo sapiens, UniProt Q07343)
Construct: purchased BPS 60041
Sequence (Q07343 whole entry): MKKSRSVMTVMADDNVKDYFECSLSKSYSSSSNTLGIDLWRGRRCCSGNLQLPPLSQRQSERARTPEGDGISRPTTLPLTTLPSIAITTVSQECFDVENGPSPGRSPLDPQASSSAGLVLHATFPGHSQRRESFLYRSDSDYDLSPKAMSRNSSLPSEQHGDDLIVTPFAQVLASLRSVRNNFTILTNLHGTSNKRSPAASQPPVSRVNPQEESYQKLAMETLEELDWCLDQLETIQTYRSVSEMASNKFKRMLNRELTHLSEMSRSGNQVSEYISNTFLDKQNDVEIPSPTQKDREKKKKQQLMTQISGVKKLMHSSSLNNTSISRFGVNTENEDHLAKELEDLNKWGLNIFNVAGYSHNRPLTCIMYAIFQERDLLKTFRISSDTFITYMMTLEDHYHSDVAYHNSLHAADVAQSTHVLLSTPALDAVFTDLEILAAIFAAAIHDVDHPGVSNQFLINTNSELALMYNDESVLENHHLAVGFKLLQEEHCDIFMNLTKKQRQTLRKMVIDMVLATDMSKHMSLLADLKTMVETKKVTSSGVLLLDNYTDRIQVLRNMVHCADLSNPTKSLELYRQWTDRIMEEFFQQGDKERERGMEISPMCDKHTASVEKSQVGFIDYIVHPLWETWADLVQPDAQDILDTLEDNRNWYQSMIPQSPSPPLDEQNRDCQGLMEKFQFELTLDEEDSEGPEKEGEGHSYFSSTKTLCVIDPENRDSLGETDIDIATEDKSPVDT
Experiment: PDE4 activity inhibition assay, PDE4B1
Format: biochemical
Conditions: FAM-cAMP substrate, 30 minutes at room temperature
Give measured log10 of IC50 for each item. Keep answers brief.
Could you please treat all values as log10 of IC50 in nM?

CCOc1nc([C@@H](CS(C)(=O)=O)N2C(=O)c3c(C#N)ccc(NC(C)=O)c3C2=O)ccc1OC; 0.38
CCOc1nc(C(CS(C)(=O)=O)N2C(=O)c3c(F)ccc(NC(=O)CN(C)C)c3C2=O)ccc1OC (stereo not drawn); 1.00
CCOc1nc(C(CS(C)(=O)=O)N2C(=O)c3c(Cl)ccc(NC(C)=O)c3C2=O)ccc1OC (stereo not drawn); 0.20
[2H]C([2H])([2H])Oc1ccc([C@@H](CS(C)(=O)=O)N2C(=O)c3c(F)ccc(NC(=O)C4CC4)c3C2=O)cc1OCC; 0.94
CCOc1nc([C@H](CS(C)(=O)=O)N2C(=O)c3c(F)ccc(NC(C)=O)c3C2=O)ccc1OC; 1.26
CCOc1nc(C(CS(C)(=O)=O)N2C(=O)c3cccc(NC(C)=O)c3C2=O)ccc1OC (stereo not drawn); 0.54

For each of the molecules below, state log10 of IC50.
1. [2H]C([2H])([2H])Oc1ccc([C@@H](CS(C)(=O)=O)N2C(=O)c3cc(F)cc(NC(C)=O)c3C2=O)cc1OC([2H])([2H])[2H]
2. CCOc1cc([C@@H](CS(C)(=O)=O)N2C(=O)c3c(F)ccc(NC(C)=O)c3C2=O)ccc1OC
3. CCOc1cc([C@@H](CS(C)(=O)=O)N2C(=O)c3ccc(F)c(NC(C)=O)c3C2=O)ccc1OC

Result string:
1. 2.22
2. 1.15
3. 1.61

----------
Test: PK parameter test in SD rats
Type: in vivo, Sprague-Dawley rats
Details: Sprague-Dawley, rat, po; male SD rats, intragastrical administration 10 mg/kg, plasma
Exercise: state measured Tmax for each of the molecules provided.
One number for each entry, in min.

Parameter requested: Tmax. Apply to each item below.
1. CCOc1nc([C@@H](CS(C)(=O)=O)N2C(=O)c3cc(F)cc(NC(C)=O)c3C2=O)ccc1OC
2. CCOc1nc([C@@H](CS(C)(=O)=O)N2C(=O)c3c(F)ccc(NC(C)=O)c3C2=O)ccc1OC
3. [2H]C([2H])([2H])Oc1ccc([C@@H](CS(C)(=O)=O)N2C(=O)c3c(F)ccc(NC(C)=O)c3C2=O)cc1OCC

Result string:
40.2
30
120

----------
Exercise: state measured F for each of the compounds provided.
Assay: PK parameter test in SD rats
Type: in vivo, Sprague-Dawley rats
Details: male SD rats, po 10 mg/kg vs iv 3 mg/kg
Answers are plain numbers.

Provide F for all items below, preserving their order.
1. CCOc1nc([C@@H](CS(C)(=O)=O)N2C(=O)c3c(F)ccc(NC(C)=O)c3C2=O)ccc1OC
2. CCOc1cc([C@@H](CS(C)(=O)=O)N2C(=O)c3cccc(NC(C)=O)c3C2=O)ccc1OC [Reference compound 2, reference compound]
3. CCOc1nc([C@@H](CS(C)(=O)=O)N2C(=O)c3cc(F)cc(NC(C)=O)c3C2=O)ccc1OC

Result string:
1: 80.2; 2: 22.5; 3: 1.62
